Target: TGFBR2 (human) (UniProt P37173)
Sequence (P37173 whole entry, looked up): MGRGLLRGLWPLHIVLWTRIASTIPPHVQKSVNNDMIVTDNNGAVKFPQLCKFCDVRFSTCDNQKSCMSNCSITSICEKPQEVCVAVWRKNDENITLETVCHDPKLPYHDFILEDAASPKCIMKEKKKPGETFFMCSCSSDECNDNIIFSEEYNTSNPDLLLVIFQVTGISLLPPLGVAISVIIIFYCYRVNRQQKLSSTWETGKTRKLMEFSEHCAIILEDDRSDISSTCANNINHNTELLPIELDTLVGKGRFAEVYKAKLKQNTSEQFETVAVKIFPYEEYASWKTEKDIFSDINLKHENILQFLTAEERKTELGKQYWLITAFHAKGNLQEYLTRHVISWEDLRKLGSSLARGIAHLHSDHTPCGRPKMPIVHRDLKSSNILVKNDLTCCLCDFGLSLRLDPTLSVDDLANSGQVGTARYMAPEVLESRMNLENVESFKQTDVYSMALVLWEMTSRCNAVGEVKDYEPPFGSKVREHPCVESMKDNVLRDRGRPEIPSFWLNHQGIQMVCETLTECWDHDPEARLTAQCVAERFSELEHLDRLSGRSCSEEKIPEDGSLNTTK
Assay: radiometric filter-binding kinase assay, Kinase HotSpot
Conditions: compound 0.5 µM; ATP 10 µM
The following molecules are shown together with reported residual activity values.
# number only, unit % dropped from output

{"chemical-smiles": "O=C(Nc1ccc(Cl)cc1)c1ccccc1NCc1ccncc1", "residual activity / %": 90.1}

# residual activity lookup, item "Clc1ccc(Nc2nnc(Cc3ccncc3)c3ccccc23)cc1"
100

# residual activity lookup, item "CCN1/C(=C/C(C)=O)Sc2ccc(OC)cc21"
78.5

# residual activity lookup, item "COc1cc2nccc(Oc3ccc(NC(=S)NC(=O)c4ccccc4C)cc3)c2cc1OC"
96.7

# residual activity lookup, item "CC(C)(C)c1nc2c3ccc(F)cc3c3c(=O)[nH]ccc3c2[nH]1"
58.2

# residual activity lookup, item "Nc1nc(Nc2ccc(S(N)(=O)=O)cc2)nn1C(=O)c1c(F)cccc1F"
98.5

# residual activity lookup, item "CC(C)n1cnc2c(Nc3cccc(Cl)c3)nc(NCCO)nc21"
70.2

Data origin: the kinase profiling compilation of Christmann-Franck et al. (2016)
